Listed next: entries and their corresponding growth inhibition.
assay: NCI Yeast Anticancer Drug Screen. Data for the rad14 strain (AID 159);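 note: 0% = growth of vehicle-treated control cultures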; conditions: S. cerevisiae rad14 strain growth inhibition; at 100.0 µM; active compounds read high
The panel holds about 79,000 compounds, 15% with a hit somewhere; the sample as a whole holds those more often. The source made the active and inactive calls. Cut-off read from the data, not from the text of the source: active = growth inhibition above about 70%; inactive = the rest.

# COMPOUND, MEAS_VALUE
records = [
    ("CCCCN(CCCC)CC(C(C)=O)C(c1ccccc1)c1c(O)c2ccccc2oc1=O (stereo not drawn)", "-24% (inactive)"),
]

Q. Find the recorded growth inhibition belonging to CCS(=O)(=O)[O][Sn]([CH2]C)([CH2]C)[O]S(=O)(=O)CC and report it.
A. 34% (inactive)

Q. Try CC12CCC(C1)C(C)(C)C2OC(=O)c1ccccc1N (stereo not drawn) next.
A. 17% (inactive)
